- test.target: OsWRKY34 (Oryza sativa, UniProt Q0JBA9 1-250)
- Sequence (Q0JBA9 entry or part of it): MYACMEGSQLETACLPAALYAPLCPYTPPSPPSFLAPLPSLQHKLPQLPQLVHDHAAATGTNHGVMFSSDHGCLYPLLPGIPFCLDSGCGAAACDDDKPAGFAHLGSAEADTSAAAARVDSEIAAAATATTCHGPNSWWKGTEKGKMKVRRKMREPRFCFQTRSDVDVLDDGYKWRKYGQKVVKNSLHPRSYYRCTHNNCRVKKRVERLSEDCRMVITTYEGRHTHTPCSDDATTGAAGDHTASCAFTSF
- assay.comment: protein-binding microarray (RPBM); PBS, 2% BSA, 51.3 ng/ul salmon testes DNA, 50 uM zinc acetate, 200 nM TF, 25 C, 1 h; high values mean tight binding
- measurement.parameters: protein: recombinant; tags: N-terminal polyhistidine and DsRed monomer fusion (pET32a); label: CyDye5-dUTP incorporated in the synthesized complementary strand; 3' TTTTT single-stranded linker to array surface; dsDNA, one strand shown
In all, about 68,000 sequences were measured (“fluorescence intensity (a.u.)”: median about 9,100, highest 2% from about 16,000 on). For the sample, the highest values were picked, then their nearest neighbours and some sequences at random.
assay.metric: binding signal

>>> df
                                 seq_string    assay_metric                      recorded_result
0  AATGTATGACGCAGTTGACTTTGTGACAAACGTTTGACCTCGGAGTCACCTAGTGCAG  binding signal  12300 fluorescence intensity (a.u.)
1  CATCCGTATGATTCGACTTTTTTTTCACGTTGATTTTATACGGAGTCACCTAGTGCAG  binding signal   9050 fluorescence intensity (a.u.)
2  CATTTTTCTAATTACAAAGTCCATTTCTTTTTATGTTTTCCGGAGTCACCTAGTGCAG  binding signal   8830 fluorescence intensity (a.u.)
3  AATTGTAAAGTTGACTTTAATGTTTTTTTTATTGTGGTTTCGGAGTCACCTAGTGCAG  binding signal   8740 fluorescence intensity (a.u.)

Ask: Specify measured binding signal for `AATGTATGACGCCGTTGACTTTTTGCCCAACGTTTGACCACGGAGTCACCTAGTGCAG` .
Result: 38700 fluorescence intensity (a.u.)
